Ref: the supplement of paper PMC9170038

Tested on: MS2 coat protein
Assay overview: apparent KD of MS2 coat protein; designed switch direction (-1 OFF switch, 1 ON switch): 1; higher = weaker reporter binding
Condition: Eterna round: R95; input ligand: microRNA oligo, concentration not stated
A collection of sequences and their measured apparent KD of MS2 coat protein
Quick note: give the figure in nM, leave out the unit.

Past entries and their recorded results:
• AACAAUUAACAUGAGGAUCACCCAUGUAUUACUUCGUGUUUUUGCUCGUCUUAUGUUAGGUUCGAUAGAGCUUAACA [Improved] (puzzle: Sensor for hsa-mir-208a version 2) = 12.6
• AUAAGUUUGAUGCUCGUCUCUCCGUACAAACAUGAGGAUCACCCAUGUGGUCGGGAAGUAGCCCGGCCAGUAUGGCA [Arbitius] (puzzle: Sensor for hsa-mir-208a) = 17.9

Incoming: For the sequence CUGUGUUGCGGGCAGGAUAUGUAUUGGGAUACAUGAGGAUCACCCAUGUGCGGGUGUUUCACCCGACAGAAGGGCCAAUCGCGAC [JL-ss2-3.22 ViennaUCT mod] (puzzle: Same State 2) , what apparent KD of MS2 coat protein is on record?
Outgoing: 370

Incoming: For the sequence UACAAUCUAUCUGAGGAUAUCAUGAAUUACACAUGAGGAUCACCCAUGUGCAGGAAAACUGCAUAUGAGAAGGCAGAUAGAUUGU [salish99_ss2_r3_065] (puzzle: Same State 2) , what apparent KD of MS2 coat protein is on record?
Outgoing: 1060

----------
A collection of sequences and their measured apparent KD of MS2 coat protein
System: MS2 coat protein
Assay overview: apparent KD of MS2 coat protein; designed switch direction (-1 OFF switch, 1 ON switch): 1; higher = weaker reporter binding
Condition: input ligand: FMN 200 uM
Quick note: give the figure in nM, leave out the unit.

• GCUAGAAUAAAAGCCAACAUGAGGAUCACCCAUGUAUGUUGGCAGGAUAUCGUUUGCAAAGCAAACGAGAAGGGCCAUACUAGC [Mat - Same State NG 3 - JL Mod - D23] (Eterna round: R96, puzzle: Same State NG 3) = 45.1
• UCUGCAAGAACAGGAUAUGGGUUCAGAGCGCGAGUGCGCUUUGACACAUGAGGAUCACCCAUGUCCCAGAAGGGUUCAAGCGGC [Cexezadi] (Eterna round: R96, puzzle: Same State NG 2) = 30
• AAACACGGCAAAACGCCGUGACAUGAGGAUCACCCAUGUACACAGGAUAUCAUGGCAAAACACCAUGAGAAGGGUGAUCAAGAC [Zaleala] (Eterna round: R96, puzzle: Same State NG 3) = 30.7

Incoming: Please tell me: apparent KD of MS2 coat protein of AAGAAAUCCGCAGGAUAUCCUAAGCCGGACUUAGGAGAAGGGUGGCCACAUGAGGAUCACCCAUGUAAAAGCUGAAUCACAGCC [Vetianeste] (Eterna round: R96, puzzle: Same State NG 1) , system MS2 coat protein?
Outgoing: 554

Incoming: Please tell me: apparent KD of MS2 coat protein of UGAACCUUCACAGGAUAUCAUGCGAAAAUUGCGUGAGAAGGGUGAAUGUGGUGUUCAUAGUUGCACAUGAGGAUCACCCAUGUA [SameState NG1 #52] (Eterna round: R96, puzzle: Same State NG 1) , system MS2 coat protein?
Outgoing: 107

----------
System: MS2 coat protein
Assay overview: apparent KD of MS2 coat protein; designed switch direction (-1 OFF switch, 1 ON switch): 1; higher = weaker reporter binding
Condition: input ligand: FMN 200 uM
A collection of sequences and their measured apparent KD of MS2 coat protein
Quick note: give the figure in nM, leave out the unit.

Past entries and their recorded results:
* ACAUGAGAAUUAGGAUAUAUAGUACCUACAUGUGACAUGAGGAUCACCCAUGUGGUAAGUAUGACAUAGAAGGAAUAGAUAUGU [Equivalance 97 - Jieux - Same State NG 2] (Eterna round: R96, puzzle: Same State NG 2) | 66.5
* ACAUGAGACUCAGGAUAUGGUGUACCUACAUGUGACAUGAGGAUCACCCAUGUGGUAAGUAUGACUCAGAAGGGAGAGAUAUGU [Equivalance 76 - Jieux - Same State NG 2] (Eterna round: R96, puzzle: Same State NG 2) | 37.4
* UGAAUAGUUACAGGAUAUGAGUUGUAAAUUGGGUCAGAAGGGUGGGUGUUCUGCGCGGUGUGUUACAUGAGGAUCACCCAUGUU [SameState NG1 #29] (Eterna round: R96, puzzle: Same State NG 1) | 504
* GCGAGCGUACUUGCAACAUGAGGAUCACCCAUGUUAACUGGACAGGAUAUGGUACCGUUUCGGUACCAGAAGGGUUUAUCAUGU [JL SSNG3 3.66] (Eterna round: R96, puzzle: Same State NG 3) | 92.3
* GCGAUCUACCGGAAGGUAGAUCGGCUUGUACAUGAGGAUCACCCAUGUCUGUACAAGCUUUUUGCUCGUCUUAUGGG [salish99-hsa-208a-66] (Eterna round: R96, puzzle: Sensor for hsa-mir-208a) | 1150

Incoming: For the sequence GGGCCACAUGAGGAUCACCCAUGUGGAGCUAGUGCACGGUCACAGGAUAUCUCGUGGGCGUAUAGGGAGAAGGGUGAUUCAUUA [Eternabot solution 18] (Eterna round: R96, puzzle: Same State NG 3) , what apparent KD of MS2 coat protein is on record?
Outgoing: 47.2

Incoming: For the sequence UAUGAUGCCGUAGGAUAUCUAGGAUAUGGACGAGGAUCACCCGAGCAGCAUCAGCGCACCAGAGGAGAGAAGGACGCUUUGGAA [pwkr ssNG2 2F5 2FMN.22] (Eterna round: R96, puzzle: Same State NG 2) , what apparent KD of MS2 coat protein is on record?
Outgoing: 477

Incoming: For the sequence UGGCUCAGACGAGGAUAUACGUGGUCACAUGAGGAUCACCCAUGUCUCGAGCUUCGGCUCGAGGCGUAGAAGGCGUCUGAGCCA [SSNG2/6-A2] (Eterna round: R96, puzzle: Same State NG 2) , what apparent KD of MS2 coat protein is on record?
Outgoing: 125

Incoming: For the sequence AUGCCAAAUCAAGGAUAUGGAGCCUUAUUGGCUCCAGAAGGUGGGACAUGAGGAUCACCCAUGUGGCAGUGGUCUAAUGACCAC [Fiskers NG1ss - 31] (Eterna round: R96, puzzle: Same State NG 1) , what apparent KD of MS2 coat protein is on record?
Outgoing: 59.7

----------
Test system: MS2 coat protein
Assay overview: apparent KD of MS2 coat protein; designed switch direction (-1 OFF switch, 1 ON switch): 1; higher = weaker reporter binding
Condition: input ligand: FMN 200 uM
Value kind: apparent KD of MS2 coat protein (nM)
Quick note: give the figure in nM, leave out the unit.

Past entries and their recorded results:
• UGUACCUUCACAGGAUAUCAUGCGAAAAUUGCGUGAGAAGGGUGAAUACUGUGUUAAUAAAAGCACAUGAGGAUCACCCAUGUA [SameState NG1 #57] (Eterna round: R96, puzzle: Same State NG 1) = 392
• UUUACUUUCAUAGGAUAUCAUGCGAAAAUUGCGUGAGAAGGGUGAACACUGUCUUUCUAAGAGUACAUGAGGAUCACCCAUGUA [SameState NG1 #65] (Eterna round: R96, puzzle: Same State NG 1) = 113

Okay, next one:
Incoming: For the sequence GCGCAAUGAUGUGACAUGAGGAUCACCCAUGUAACCUCAUGUAAGGAUAUCGGGAAAAAAAAAACCGAGAAGGUAUGGUCACGC [AK SSNG3-V2-27.2] (Eterna round: R96, puzzle: Same State NG 3) , what apparent KD of MS2 coat protein is on record?
Outgoing: 145

----------
System: MS2 coat protein
Assay overview: apparent KD of MS2 coat protein; higher = weaker reporter binding
Condition: Eterna round: R107; input ligand: tryptophan 2.4 mM
A collection of sequences and their measured apparent KD of MS2 coat protein
Quick note: give the figure in nM, leave out the unit.

Past entries and their recorded results:
• GAUAGUUGAUGGGAUACCAGCCUACACAUGAGGAUCACCCAUGUGAUUCGUGUACGACUGGGCCCUUGGCAGCCCAUAUUGUGUA [#12 Same State - Theophylline B] = 128
• GUCGCUGAGGGAAGGAGCGUGAAGACAUGAGGAUCACCCAUGUAGAGGCGCCGAAGGCGUUCGCAGGUAGGUCGCCCUCAGUGAA [#1 Same State - Arginine B Attempt #25 (HarryS)] = 15.1
• UUAAGAGGAUAUCAAAUUUGAUUUUGUGAUACCAGAAUAAUUUUAUUCCCUUGGCAGCAUGACAUGAGGAUCACCCAUGUGUCUU [SSTheo A #1] = 30.9

Okay, next one:
Incoming: Please tell me: apparent KD of MS2 coat protein of GGUUUAUAUAUAUAUAUAUAGAUUACUGAAGGAGCGGGAAAUAACCCAGGUAGGUCGCAGAGAUCCACAUGAGGAUCACCCAUGU [!0.E] , system MS2 coat protein?
Outgoing: 36.8
